Kindly supply the reported melting point values for the records listed here.

Prompt line: Requested read-out: melting point. Entry: CCCc1nc2c(N)nc3cc(-c4cccnc4)ccc3c2n1CC1CCN(C(=O)C(C)C)CC1
Response line: 248 to 249 °C

Prompt line: May I ask what melting point has been recorded for CCCc1nc2c(N)nc3cc(-c4cncc(CO)c4)ccc3c2n1CC(C)(C)O ?
Response line: 225 to 226 °C

Prompt line: Report melting point for CCCNC(=O)NCCCCn1c(CCC)nc2c(N)nc3cc(-c4cccnc4)ccc3c21 (hydrate or solvate) please.
Response line: 184 to 185 °C

Prompt line: Item under review: CCOCc1nc2c(N)nc3cc(-c4cccnc4)ccc3c2n1CCN1CCN(C(=O)C(C)C)CC1 (hydrate or solvate) . Reported melting point?
Response line: 190 to 192 °C

Prompt line: Would you mind telling me what melting point value was observed for CC(C)Cn1cnc2c(N)nc3ccc(-c4ccc(C(C)(C)C)cc4)cc3c21 ?
Response line: > 250 °C

Prompt line: Give the measured melting point of CCCCc1nc2c(N)nc3cc(CCc4ccccc4)ccc3c2n1CC(C)C .
Response line: 181 to 182 °C

Prompt line: So what does the record say about melting point for CCOCc1nc2c(N)nc3cc(-c4ccccc4)ccc3c2n1CCCCN1CCCS1(=O)=O ?
Response line: 167 to 168.5 °C

Prompt line: Which melting point is reported for this molecule? CCOCc1nc2c(N)nc3cc(-c4cccnc4)ccc3c2n1CCNC(=O)C(C)C
Response line: 213 to 215 °C
